# Tested on: Endogenous Huntingtin Protein
# TEST NAME: Endogenous Huntingtin Protein Assay (Meso Scale Discovery ELISA-based electrochemiluminescence)
# Assay type: cell-based
# CONDITION PARAMETERS: MSD plates coated with MW1 (expanded polyglutamine) or MAB2166 capture antibody; lysates
# Experimental: Compounds of Formula (I) were tested using the Meso Scale Discovery (MSD) Assay provided in International Application No. PCT/US2016/066042, filed on Dec. 11, 2016 and claiming priority to United States Provisional Application U.S. 62/265,652 filed on Dec. 10, 2015, the entire contents of which are incorporated herein by reference. The Endogenous Huntingtin Protein assay used in Example 1 was developed using the ELISA-based MSD electrochemiluminescence assay platform. […]
pIC50: −log10 of the molar value.
pIC50 by entry:

Solved cases (3 shown):
>>> val("CC1(C)CC(n2nnc3cc(-c4ccc(-c5ccc(O)cc5)cc4O)nnc32)CC(C)(C)N1")
"≥ 7.00"
>>> val("COc1cc(-c2ccc(-c3cc4nnn(C5CC(C)(C)NC(C)(C)C5)c4nn3)c(O)c2)ncn1")
"≥ 7.00"
>>> val("CN(C)c1cc(-c2ccc(-c3cc4nnn(C5CC(C)(C)NC(C)(C)C5)c4nn3)c(O)c2)ccn1")
"5.52 to 6.00"

For record Oc1cc(-c2cn[nH]c2)ccc1-c1cnc2c(cnn2C2CCNCC2)n1 the listed pIC50 is 5.52 to 6.00
